tested system: rat nNOS (Rattus norvegicus)
Construct: Full-length recombinant rat nNOS, mouse iNOS, bovine eNOS; made in house; host or cells: Escherichia coli
Sequence (P29476 whole entry): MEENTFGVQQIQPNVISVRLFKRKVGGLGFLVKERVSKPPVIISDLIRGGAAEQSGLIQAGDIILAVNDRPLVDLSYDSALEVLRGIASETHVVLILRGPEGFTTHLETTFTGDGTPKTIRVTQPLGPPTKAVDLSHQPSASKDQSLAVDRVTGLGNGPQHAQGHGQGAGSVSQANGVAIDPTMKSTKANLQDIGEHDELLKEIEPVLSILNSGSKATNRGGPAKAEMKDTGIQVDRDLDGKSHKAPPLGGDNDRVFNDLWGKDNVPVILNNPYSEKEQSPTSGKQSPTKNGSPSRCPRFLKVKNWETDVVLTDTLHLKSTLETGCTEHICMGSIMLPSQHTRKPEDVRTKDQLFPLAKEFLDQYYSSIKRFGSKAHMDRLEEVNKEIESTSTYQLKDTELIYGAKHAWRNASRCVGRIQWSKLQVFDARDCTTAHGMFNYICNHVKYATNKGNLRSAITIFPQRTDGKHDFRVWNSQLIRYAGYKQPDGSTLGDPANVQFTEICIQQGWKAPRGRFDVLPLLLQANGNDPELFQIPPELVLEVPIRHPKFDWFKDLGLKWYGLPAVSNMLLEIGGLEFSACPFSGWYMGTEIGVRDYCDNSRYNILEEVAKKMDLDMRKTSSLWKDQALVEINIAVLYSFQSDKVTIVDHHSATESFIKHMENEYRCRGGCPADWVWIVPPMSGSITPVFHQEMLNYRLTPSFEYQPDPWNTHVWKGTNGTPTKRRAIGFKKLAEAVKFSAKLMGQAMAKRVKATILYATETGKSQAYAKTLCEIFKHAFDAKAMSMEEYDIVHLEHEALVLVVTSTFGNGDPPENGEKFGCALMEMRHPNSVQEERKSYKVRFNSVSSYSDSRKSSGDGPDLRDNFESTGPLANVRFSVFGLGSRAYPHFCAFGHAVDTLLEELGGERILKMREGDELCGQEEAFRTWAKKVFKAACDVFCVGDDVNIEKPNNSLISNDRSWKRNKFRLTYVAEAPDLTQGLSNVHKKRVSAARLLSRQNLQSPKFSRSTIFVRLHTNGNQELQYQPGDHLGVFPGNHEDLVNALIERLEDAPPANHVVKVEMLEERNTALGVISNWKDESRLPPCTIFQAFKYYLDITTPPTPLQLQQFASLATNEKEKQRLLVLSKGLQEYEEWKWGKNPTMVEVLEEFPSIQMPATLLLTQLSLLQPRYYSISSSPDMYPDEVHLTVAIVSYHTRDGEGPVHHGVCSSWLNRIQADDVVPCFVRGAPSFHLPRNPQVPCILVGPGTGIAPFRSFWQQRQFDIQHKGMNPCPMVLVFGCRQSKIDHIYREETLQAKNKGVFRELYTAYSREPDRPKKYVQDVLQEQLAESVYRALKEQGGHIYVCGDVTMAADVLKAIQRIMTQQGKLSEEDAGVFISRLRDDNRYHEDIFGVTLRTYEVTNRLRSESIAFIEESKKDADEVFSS
run description: NOS inhibition, oxyhemoglobin (hemoglobin capture) test, recombinant nNOS
Format: biochemical
test parameters: 1,2,4-oxadiazole series; recombinant enzyme, 10 µM arginine, triplicate; NI = <50% inhibition at 100 μM
readout name: IC50 (µM)

>>> measured_value("CCSC(=N)NCCC[C@H](N)c1nc(CCNCc2ccccc2)no1 [Compound 29]")
13.4
>>> measured_value("CCSC(=N)NCCC[C@H](N)c1nc(CCN)no1 [Compound 28]")
58.9
>>> measured_value("CCSC(=N)NCCC[C@H](N)c1nc(CCN(Cc2cccc([N+](=O)[O-])c2)Cc2cccc([N+](=O)[O-])c2)no1 [Compound 38]")
0.6
>>> measured_value("CCSC(=N)NCCC[C@H](N)c1nc(CCN(Cc2ccccc2[N+](=O)[O-])Cc2ccccc2[N+](=O)[O-])no1 [Compound 40]")
61
>>> measured_value("CCSC(=N)NCCC[C@H](N)c1nc(CCN(Cc2ccc([N+](=O)[O-])cc2)Cc2ccc([N+](=O)[O-])cc2)no1 [Compound 37]")
0.3

1 = CCSC(=N)NCCC[C@H](N)c1nc(CCN(Cc2ccccc2O)Cc2ccccc2O)no1 [Compound 36]
2 = CCSC(=N)NCCC[C@H](N)c1nc(CCN(Cc2ccc3ccccc3c2)Cc2ccc3ccccc3c2)no1 [Compound 35]
When the recorded IC50 values are compared, which is smaller: that of 1 or that of 2 ? // respond with label for picked entry
2

----------
tested system: bovine eNOS (Bos taurus)
Construct: Full-length recombinant rat nNOS, mouse iNOS, bovine eNOS; made in house; host or cells: Escherichia coli
Sequence (P29473 whole entry): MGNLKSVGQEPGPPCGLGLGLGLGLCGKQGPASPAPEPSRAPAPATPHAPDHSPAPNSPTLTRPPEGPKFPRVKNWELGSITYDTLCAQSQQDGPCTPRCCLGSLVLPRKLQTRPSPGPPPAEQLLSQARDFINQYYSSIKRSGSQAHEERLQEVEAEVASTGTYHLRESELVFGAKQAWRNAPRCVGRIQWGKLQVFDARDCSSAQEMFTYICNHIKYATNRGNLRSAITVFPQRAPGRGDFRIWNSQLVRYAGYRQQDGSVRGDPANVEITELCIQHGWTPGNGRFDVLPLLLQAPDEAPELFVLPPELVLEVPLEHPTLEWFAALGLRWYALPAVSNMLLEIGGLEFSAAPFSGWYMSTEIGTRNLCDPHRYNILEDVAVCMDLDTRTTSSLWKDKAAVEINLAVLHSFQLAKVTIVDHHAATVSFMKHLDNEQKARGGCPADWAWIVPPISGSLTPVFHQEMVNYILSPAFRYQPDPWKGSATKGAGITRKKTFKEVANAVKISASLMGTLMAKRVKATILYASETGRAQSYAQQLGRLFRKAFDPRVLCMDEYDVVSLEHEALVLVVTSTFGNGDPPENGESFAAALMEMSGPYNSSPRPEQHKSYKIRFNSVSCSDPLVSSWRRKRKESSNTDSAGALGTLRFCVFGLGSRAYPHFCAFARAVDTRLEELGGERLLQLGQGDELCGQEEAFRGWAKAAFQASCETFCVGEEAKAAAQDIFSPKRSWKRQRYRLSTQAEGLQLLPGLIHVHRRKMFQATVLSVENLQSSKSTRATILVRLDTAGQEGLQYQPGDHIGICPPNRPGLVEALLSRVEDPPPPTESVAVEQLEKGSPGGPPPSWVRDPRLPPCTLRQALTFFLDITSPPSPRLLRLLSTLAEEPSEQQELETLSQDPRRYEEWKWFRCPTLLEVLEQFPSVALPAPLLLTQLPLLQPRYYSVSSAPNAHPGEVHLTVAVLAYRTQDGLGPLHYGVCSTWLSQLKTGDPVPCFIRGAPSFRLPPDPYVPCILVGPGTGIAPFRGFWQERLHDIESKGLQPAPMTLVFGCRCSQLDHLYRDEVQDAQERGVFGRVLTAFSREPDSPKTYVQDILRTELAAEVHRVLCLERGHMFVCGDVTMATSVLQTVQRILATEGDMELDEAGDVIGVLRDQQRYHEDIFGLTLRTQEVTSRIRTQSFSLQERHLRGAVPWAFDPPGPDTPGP
run description: NOS inhibition, oxyhemoglobin (hemoglobin capture) test, recombinant eNOS
Format: biochemical
test parameters: dipeptide-like series; recombinant enzyme, 10 µM arginine, triplicate; NI = <50% inhibition at 100 μM
readout name: IC50 (µM)

>>> measured_value("CCSC(=N)NCCC[C@H](N)C(=O)N[C@@H]1CCCN(Cc2cc(O)ccc2O)C1")
25.4

P = CCSC(=N)NCCC[C@H](N)C(=O)N[C@H]1CCCN(Cc2cc(O)ccc2O)C1
Q = CCSC(=N)NCCC[C@H](N)C(=O)N[C@H]1CCCN(Cc2ccc(-c3cccc([N+](=O)[O-])c3)cc2)C1
Lab notebook, comparison: P versus Q , higher IC50 goes to which? // respond with label for picked entry
P

----------
System: RAW 264.7 cells
run description: Cell viability, MTT assay
Assay type: cell-based, murine
test parameters: RAW 264.7, absence of LPS, up to 100 μM
readout name: Effect on cell viability (MTT)

>>> measured_value("CCSC(=N)NCCC[C@H](N)C(=O)N[C@H]1CCCN(Cc2ccc(C(F)(F)F)c(Cl)c2)C1 [Compound 18]")
"fully toxic"
>>> measured_value("CCSC(=N)NCCC[C@H](N)C(=O)N[C@H]1CCCN(Cc2cccc(-c3cccc([N+](=O)[O-])c3)c2)C1 [Compound 26]")
"fully toxic"

----------
tested system: mouse iNOS (Mus musculus, UniProt P29477)
Construct: Full-length recombinant rat nNOS, mouse iNOS, bovine eNOS; made in house; host or cells: Escherichia coli
Sequence (P29477 1-1144): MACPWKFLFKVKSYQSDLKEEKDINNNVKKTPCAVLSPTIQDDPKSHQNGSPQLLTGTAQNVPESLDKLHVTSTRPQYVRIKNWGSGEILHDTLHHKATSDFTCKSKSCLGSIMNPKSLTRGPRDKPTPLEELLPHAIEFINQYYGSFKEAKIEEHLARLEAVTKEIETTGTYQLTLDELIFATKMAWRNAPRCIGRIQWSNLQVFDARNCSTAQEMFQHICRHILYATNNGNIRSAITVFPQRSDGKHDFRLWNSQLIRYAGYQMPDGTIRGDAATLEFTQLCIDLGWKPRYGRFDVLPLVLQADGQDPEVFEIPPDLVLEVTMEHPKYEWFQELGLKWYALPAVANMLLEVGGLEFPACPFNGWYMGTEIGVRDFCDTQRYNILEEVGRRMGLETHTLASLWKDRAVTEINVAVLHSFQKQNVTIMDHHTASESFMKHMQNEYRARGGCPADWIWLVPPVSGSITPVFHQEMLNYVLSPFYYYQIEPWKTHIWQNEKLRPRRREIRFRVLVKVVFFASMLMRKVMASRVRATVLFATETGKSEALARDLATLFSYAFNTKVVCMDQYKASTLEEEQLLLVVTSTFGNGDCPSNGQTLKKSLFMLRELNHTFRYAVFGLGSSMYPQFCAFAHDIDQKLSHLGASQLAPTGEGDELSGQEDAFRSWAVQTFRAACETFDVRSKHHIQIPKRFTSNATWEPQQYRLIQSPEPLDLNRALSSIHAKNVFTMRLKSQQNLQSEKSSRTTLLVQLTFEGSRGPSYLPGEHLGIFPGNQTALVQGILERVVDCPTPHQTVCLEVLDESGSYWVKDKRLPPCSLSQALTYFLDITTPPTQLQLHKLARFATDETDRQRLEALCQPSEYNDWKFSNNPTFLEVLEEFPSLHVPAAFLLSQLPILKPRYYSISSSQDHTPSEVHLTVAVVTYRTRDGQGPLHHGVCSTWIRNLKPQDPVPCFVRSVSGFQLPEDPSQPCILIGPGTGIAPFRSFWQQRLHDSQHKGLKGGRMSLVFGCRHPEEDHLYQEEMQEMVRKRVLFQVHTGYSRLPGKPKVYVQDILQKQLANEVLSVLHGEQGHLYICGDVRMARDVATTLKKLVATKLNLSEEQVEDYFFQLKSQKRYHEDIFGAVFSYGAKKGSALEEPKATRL
run description: NOS inhibition, oxyhemoglobin (hemoglobin capture) test, recombinant iNOS
Assay type: biochemical
test parameters: 1,2,4-oxadiazole series; recombinant enzyme, 20 µM arginine, triplicate; NI = <50% inhibition at 100 μM
readout name: IC50 (µM)

# annotated cases, reported IC50 shown
>>> measured_value("CCSC(=N)NCCC[C@H](N)c1nc(CCN(Cc2ccccc2C)Cc2ccccc2C)no1")
11.1
>>> measured_value("CCSC(=N)NCCC[C@H](N)c1nc(CCN)no1")
83.7
>>> measured_value("CCSC(=N)NCCC[C@H](N)c1nc(CCN(Cc2ccccc2[N+](=O)[O-])Cc2ccccc2[N+](=O)[O-])no1")
2

a = CCSC(=N)NCCC[C@H](N)c1nc(CCN(Cc2cccc3ccccc23)Cc2cccc3ccccc23)no1
b = CCSC(=N)NCCC[C@H](N)c1nc(CCNCc2cc(O)ccc2[N+](=O)[O-])no1
When the recorded IC50 values are compared, which is smaller: that of a or that of b ? // respond with label for picked entry
a

a = CCSC(=N)NCCC[C@H](N)c1nc(CCN(Cc2ccccc2)Cc2ccccc2)no1
b = CCSC(=N)NCCC[C@H](N)c1nc(CCN(Cc2ccc3ccccc3c2)Cc2ccc3ccccc3c2)no1
c = CCSC(=N)NCCC[C@H](N)c1nc(CCN(Cc2ccccc2O)Cc2ccccc2O)no1
Please give the order of these molecules when sorted by IC50, largest value leading. Answer format: the labels, in the requested order.
c, b, a
